- method.notes: Selectivity ratio of MHC10 for BALB/C mouse erythrocytes to MIC for fungi
- Assay type: toxicity
Where a SMILES comes first, the peptide text is derived from it.
selectivity ratio less than 7 is YES; selectivity ratio greater than or equal to 7 is NO.

Could you please tell me whether selectivity ratio recorded for CC(C)C[C@H](NC(=O)[C@H](CC(C)C)NC(=O)[C@@H](NC(=O)[C@H](CCCCN)NC(=O)[C@H](Cc1ccccc1)NC(=O)[C@H](CCCNC(=N)N)NC(=O)[C@H](CCCCN)NC(=O)[C@H](CC(C)C)NC(=O)[C@H](CC(C)C)NC(=O)CN)[C@@H](C)O)C(N)=O (H-GLLKRFKTLL-NH2) is less than 7? NO

Could you please tell me whether selectivity ratio recorded for CC(C)C[C@H](NC(=O)[C@H](Cc1c[nH]c2ccccc12)NC(=O)CN)C(=O)N[C@@H](CCCCN)C(=O)N[C@@H](CCCNC(=N)N)C(=O)N[C@@H](Cc1c[nH]c2ccccc12)C(=O)N[C@@H](CCCCN)C(=O)N[C@H](C(=O)N[C@@H](CC(C)C)C(=O)N[C@@H](Cc1c[nH]c2ccccc12)C(N)=O)[C@@H](C)O (H-GWLKRWKTLW-NH2) is less than 7? NO

Could you please tell me whether selectivity ratio recorded for C[C@@H](O)[C@H](NC(=O)[C@H](CCCCN)NC(=O)[C@H](Cc1c[nH]c2ccccc12)NC(=O)[C@H](CCCNC(=N)N)NC(=O)[C@H](CCCCN)NC(=O)[C@H](Cc1c[nH]c2ccccc12)NC(=O)[C@H](Cc1c[nH]c2ccccc12)NC(=O)CN)C(=O)N[C@@H](Cc1c[nH]c2ccccc12)C(=O)N[C@@H](Cc1c[nH]c2ccccc12)C(N)=O (H-GWWKRWKTWW-NH2) is less than 7? YES

Could you please tell me whether selectivity ratio recorded for CC[C@H](C)[C@H](NC(=O)[C@H](CCCNC(=N)N)NC(=O)[C@H](CCCNC(=N)N)NC(=O)[C@H](Cc1ccccc1)NC(=O)[C@H](Cc1ccccc1)NC(=O)CN)C(=O)N[C@@H](CCCNC(=N)N)C(=O)N[C@H](C(=O)N[C@@H](Cc1ccccc1)C(=O)N[C@@H](Cc1ccccc1)C(N)=O)[C@@H](C)O (H-GFFRRIRTFF-NH2) is less than 7? NO

Could you please tell me whether selectivity ratio recorded for CC(C)C[C@H](NC(=O)[C@H](CC(C)C)NC(=O)[C@@H](NC(=O)[C@H](CCCCN)NC(=O)[C@H](Cc1c[nH]c2ccccc12)NC(=O)[C@H](CCCNC(=N)N)NC(=O)[C@H](CCCCN)NC(=O)[C@H](CC(C)C)NC(=O)[C@H](CC(C)C)NC(=O)CN)[C@@H](C)O)C(N)=O (H-GLLKRWKTLL-NH2) is less than 7? NO

Could you please tell me whether selectivity ratio recorded for CC(C)C[C@H](NC(=O)[C@H](C)NC(=O)[C@@H](NC(=O)[C@H](CCCCN)NC(=O)[C@H](C)NC(=O)[C@H](CCCNC(=N)N)NC(=O)[C@H](CCCCN)NC(=O)[C@H](CC(C)C)NC(=O)[C@H](C)NC(=O)CN)[C@@H](C)O)C(N)=O (H-GALKRAKTAL-NH2) is less than 7? YES

Could you please tell me whether selectivity ratio recorded for N=C(N)NCCC[C@H](NC(=O)[C@H](CCCNC(=N)N)NC(=O)[C@H](Cc1c[nH]c2ccccc12)NC(=O)[C@H](CCCNC(=N)N)NC(=O)[C@H](CCCNC(=N)N)NC(=O)[C@H](Cc1c[nH]c2ccccc12)NC(=O)[C@H](Cc1c[nH]c2ccccc12)NC(=O)[C@@H](N)CCCNC(=N)N)C(=O)N[C@@H](Cc1c[nH]c2ccccc12)C(=O)N[C@@H](Cc1c[nH]c2ccccc12)C(N)=O (H-RWWRRWRRWW-NH2) is less than 7? YES

Could you please tell me whether selectivity ratio recorded for CC(C)C[C@H](NC(=O)[C@H](CC(C)C)NC(=O)[C@@H](NC(=O)[C@H](CCCCN)NC(=O)[C@H](C)NC(=O)[C@H](CCCNC(=N)N)NC(=O)[C@H](CCCCN)NC(=O)[C@H](C)NC(=O)[C@H](CC(C)C)NC(=O)CN)[C@@H](C)O)C(N)=O (H-GLAKRAKTLL-NH2) is less than 7? YES

Could you please tell me whether selectivity ratio recorded for CC[C@H](C)[C@H](NC(=O)[C@H](CCCNC(=N)N)NC(=O)[C@H](CCCCN)NC(=O)[C@H](Cc1ccccc1)NC(=O)[C@H](Cc1c[nH]c2ccccc12)NC(=O)[C@@H](N)CCCCN)C(=O)N[C@@H](CCCCN)C(=O)N[C@H](C(=O)N[C@@H](Cc1ccccc1)C(=O)N[C@@H](Cc1c[nH]c2ccccc12)C(N)=O)[C@@H](C)O (H-KWFKRIKTFW-NH2) is less than 7? NO

Could you please tell me whether selectivity ratio recorded for C[C@H](NC(=O)[C@H](C)NC(=O)[C@@H](NC(=O)[C@H](CCCCN)NC(=O)[C@H](C)NC(=O)[C@H](CCCNC(=N)N)NC(=O)[C@H](CCCCN)NC(=O)[C@H](C)NC(=O)[C@H](C)NC(=O)CN)[C@@H](C)O)C(N)=O (H-GAAKRAKTAA-NH2) is less than 7? YES

Could you please tell me whether selectivity ratio recorded for CC(C)C[C@H](NC(=O)[C@H](Cc1ccccc1)NC(=O)CN)C(=O)N[C@@H](CCCCN)C(=O)N[C@@H](CCCNC(=N)N)C(=O)N[C@@H](Cc1ccccc1)C(=O)N[C@@H](CCCCN)C(=O)N[C@H](C(=O)N[C@@H](CC(C)C)C(=O)N[C@@H](Cc1ccccc1)C(N)=O)[C@@H](C)O (H-GFLKRFKTLF-NH2) is less than 7? NO

Could you please tell me whether selectivity ratio recorded for CC[C@H](C)[C@H](NC(=O)[C@H](CCCNC(=N)N)NC(=O)[C@H](CCCNC(=N)N)NC(=O)[C@H](Cc1ccccc1)NC(=O)[C@H](Cc1ccccc1)NC(=O)CN)C(=O)N[C@@H](CCCCN)C(=O)N[C@H](C(=O)N[C@@H](Cc1ccccc1)C(=O)N[C@@H](Cc1ccccc1)C(N)=O)[C@@H](C)O (H-GFFRRIKTFF-NH2) is less than 7? NO

Could you please tell me whether selectivity ratio recorded for CC[C@H](C)[C@H](NC(=O)[C@H](CCCNC(=N)N)NC(=O)[C@H](CCCCN)NC(=O)[C@H](Cc1c[nH]c2ccccc12)NC(=O)[C@H](Cc1c[nH]c2ccccc12)NC(=O)CN)C(=O)N[C@@H](CCCCN)C(=O)N[C@H](C(=O)N[C@@H](Cc1c[nH]c2ccccc12)C(=O)N[C@@H](Cc1c[nH]c2ccccc12)C(N)=O)[C@@H](C)O (H-GWWKRIKTWW-NH2) is less than 7? NO

Could you please tell me whether selectivity ratio recorded for CC[C@H](C)[C@H](NC(=O)[C@H](CCCNC(=N)N)NC(=O)[C@H](CCCCN)NC(=O)[C@H](Cc1ccccc1)NC(=O)[C@H](Cc1ccccc1)NC(=O)CN)C(=O)N[C@@H](CCCNC(=N)N)C(=O)N[C@H](C(=O)N[C@@H](Cc1ccccc1)C(=O)N[C@@H](Cc1ccccc1)C(N)=O)[C@@H](C)O (H-GFFKRIRTFF-NH2) is less than 7? NO

Source of measurements: ChEMBL document CHEMBL4823282
